Molecular target: T1, VEGFR-2-Fc (UniProt P35968 20-322)
T1 construct: domain: first 3 Ig domains; conditioned supernatant of 293T cells; also called VEGFR-2-Fc fusion protein; not shown: Fc fragment of the pIg vector
T1 sequence (P35968 20-322): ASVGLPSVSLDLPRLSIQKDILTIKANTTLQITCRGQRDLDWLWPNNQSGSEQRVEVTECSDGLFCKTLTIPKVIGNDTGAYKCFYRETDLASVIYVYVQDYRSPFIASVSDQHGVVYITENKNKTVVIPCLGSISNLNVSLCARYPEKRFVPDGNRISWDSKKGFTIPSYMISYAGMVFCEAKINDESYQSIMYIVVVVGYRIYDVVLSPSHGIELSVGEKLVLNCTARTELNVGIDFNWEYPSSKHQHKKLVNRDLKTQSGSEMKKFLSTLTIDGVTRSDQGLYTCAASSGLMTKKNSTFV
Assay: receptor-Fc IP

binder	binding result
84-1 (ligand) AHYNTEILKFMDVYQRSYCHPIETLVDIFQEFGVATNTFFKPSCVPLMRCGGCCNDEGLECVPTEESNITMQIMRIKPHQGQHIGEMSFLQHNKCECRPKKD	no binding
72-13 (ligand) GQNHHEVVKSIDNEWRKTQCMPREVCIDVGKEFGVATNTFFKPPCVSVYRCGGCCNDEGLECVPTEESNITMQIMRITVPLSQGPKPVTISFANHTSCRCMSKLD	no binding
53-13 (ligand) AHYNTEILKSIDNEWRKTQCMPIETLVDIFQEYPDEIEYIFKPPCVSVYRCGGCCNDEGLECVPTEESNITMQIMRITVPLSQGPKPVTISFANHTSCRCMSKLD	no binding
52-14 (ligand) AHYNTEILKSIDNEWRKTQCMPIETLVDIFQEFGVATNTFFKPPCVSVYRCGGCCNDEGLECMNTSTSYLSKTLFEITVPLSQGPKPVTISFANHTSCRCMSKLD	no binding
34-5 (ligand) GQNHHEVVKSIDNEWRKTQCMPIETLVDIFQEFGVATNTFFKPSCVPLMRCGGCCNDEGLECVPTEESNITMQIMRIKPHQGQHIGEMSFANHTSCRCMSKLD	no binding
31-6 (ligand) GQNHHEVVKSIDNEWRKTQCMPIETLVDIFQEYPDEIEYIFKPSCVPLMRCGGCCNDEGLECMNTSTSYLSKTLFEIKPHQGQHIGEMSFANHTSCRCMSKLD	no binding
23-10 (ligand, clone entry) AHYNTEILKSIDNEWRKTQCMPREVCIDVGKEYPDEIEYIFKPPCVSVYRCGGCCNDEGLECMNTSTSYLSKTLFEITVPLSQGPKPVTISFLQHNKCECRPKKD	binds
71-16 (ligand) GQNHHEVVKSIDNEWRKTQCMPREVCIDVGKEYPDEIEYIFKPSCVPLMRCGGCCNSEGLQCMNTSTSYLSKTLFEITVPLSQGPKPVTISFANHTSCRCMSKLD	no binding
23-13 (ligand) AHYNTEILKSIDNEWRKTQCMPREVCIDVGKEYPDEIEYIFKPPCVSVYRCGGCCNDEGLECVPTEESNITMQIMRITVPLSQGPKPVTISFANHTSCRCMSKLD	no binding
11-3 (ligand) GQNHHEVVKFMDVYQRSYCHPIETLVDIFQEYPDEIEYIFKPSCVPLMRCGGCCNSEGLQCVPTEESNITMQIMRIKPHQGQHIGEMSFLQHNKCECRPKKD	binds
81-13 (ligand) AHYNTEILKFMDVYQRSYCHPIETLVDIFQEYPDEIEYIFKPSCVPLMRCGGCCNDEGLECVPTEESNITMQIMRITVPLSQGPKPVTISFANHTSCRCMSKLD	no binding
72-11 (ligand) GQNHHEVVKSIDNEWRKTQCMPREVCIDVGKEFGVATNTFFKPPCVSVYRCGGCCNSEGLQCVPTEESNITMQIMRITVPLSQGPKPVTISFLQHNKCECRPKKD	no binding
51-14 (ligand) AHYNTEILKSIDNEWRKTQCMPIETLVDIFQEYPDEIEYIFKPSCVPLMRCGGCCNDEGLECMNTSTSYLSKTLFEITVPLSQGPKPVTISFANHTSCRCMSKLD	no binding
71-6 (ligand) GQNHHEVVKSIDNEWRKTQCMPREVCIDVGKEYPDEIEYIFKPSCVPLMRCGGCCNDEGLECMNTSTSYLSKTLFEIKPHQGQHIGEMSFANHTSCRCMSKLD	no binding
83-1 (ligand) AHYNTEILKFMDVYQRSYCHPIETLVDIFQEYPDEIEYIFKPPCVSVYRCGGCCNDEGLECVPTEESNITMQIMRIKPHQGQHIGEMSFLQHNKCECRPKKD	binds
23-12 (ligand) AHYNTEILKSIDNEWRKTQCMPREVCIDVGKEYPDEIEYIFKPPCVSVYRCGGCCNSEGLQCMNTSTSYLSKTLFEITVPLSQGPKPVTISFLQHNKCECRPKKD	binds
